# Lookup of reported refractive index keyed by entry
test.description: refractive index (Na D-line) (dimensionless)
condition.summary: 288.15 K; 101.33 kPa; Liquid; Standard Abbe refractometry
value.kind: refractive index

molecule: CCCCCCCCCCCCCC[P+](CCCCCC)(CCCCCC)CCCCCC.[Br-] [tetradecyltrihexylphosphonium bromide]
observed: 1.49295
//
molecule: CCCCCCCCCCCCCC[P+](CCCCCC)(CCCCCC)CCCCCC.O=S(=O)([N-]S(=O)(=O)C(F)(F)F)C(F)(F)F
observed: 1.45279
//
molecule: CCCCCCCCCCCCCC[P+](CCCCCC)(CCCCCC)CCCCCC.[Cl-] [trihexyl(tetradecyl)phosphonium chloride]
observed: 1.48635
//
molecule: CC(CC(C)(C)C)CP(=O)([O-])CC(C)CC(C)(C)C.CCCCCCCCCCCCCC[P+](CCCCCC)(CCCCCC)CCCCCC
observed: 1.47538
//
molecule: CCCCCCCCCCCCCC[P+](CCCCCC)(CCCCCC)CCCCCC.CS(=O)(=O)[O-] [trihexyltetradecylphosphonium methanesulfonate]
observed: 1.47668
//
molecule: CCCCCCCCCC(=O)[O-].CCCCCCCCCCCCCC[P+](CCCCCC)(CCCCCC)CCCCCC [trihexyltetradecylphosphonium decanoate]
observed: 1.47586
//
molecule: CCCCCCCCCCCCCC[P+](CCCCCC)(CCCCCC)CCCCCC.N#C[N-]C#N [tetradecyl(trihexyl)phosphonium dicyanamide]
observed: 1.48706

FYI, the data here is from the NIST ThermoML archive (doi:10.1016/j.jct.2012.09.004).
